- TARGET: TBK1 (Homo sapiens (Human), UniProt Q9UHD2)
- Sequence (Q9UHD2 whole entry): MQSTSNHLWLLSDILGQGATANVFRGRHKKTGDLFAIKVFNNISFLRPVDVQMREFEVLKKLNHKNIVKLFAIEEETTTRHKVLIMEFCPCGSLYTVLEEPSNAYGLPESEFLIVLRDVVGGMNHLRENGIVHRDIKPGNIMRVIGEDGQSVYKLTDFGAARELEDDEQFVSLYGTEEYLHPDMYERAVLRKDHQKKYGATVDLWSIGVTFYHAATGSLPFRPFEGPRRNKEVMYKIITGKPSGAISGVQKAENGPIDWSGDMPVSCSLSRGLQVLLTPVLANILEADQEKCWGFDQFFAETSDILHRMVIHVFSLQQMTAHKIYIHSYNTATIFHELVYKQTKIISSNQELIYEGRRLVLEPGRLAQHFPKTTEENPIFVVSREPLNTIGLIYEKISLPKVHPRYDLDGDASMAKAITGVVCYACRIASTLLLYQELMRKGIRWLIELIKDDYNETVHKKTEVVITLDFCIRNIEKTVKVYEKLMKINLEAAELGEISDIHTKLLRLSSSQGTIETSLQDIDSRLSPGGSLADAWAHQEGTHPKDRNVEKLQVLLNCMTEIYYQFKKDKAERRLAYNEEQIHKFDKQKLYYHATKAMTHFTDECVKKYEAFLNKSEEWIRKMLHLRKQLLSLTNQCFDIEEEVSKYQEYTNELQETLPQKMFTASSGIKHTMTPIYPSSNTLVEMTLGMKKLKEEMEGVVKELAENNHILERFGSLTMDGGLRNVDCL
- ASSAY INFO: Lanthascreen TR-FRET kinase inhibition assay, TBK1
- Type: biochemical
- CONDITION INFO: 20 μM ATP (apparent Km), 8 nM kinase, 2.5 h
pIC50: −log10 of the molar value.
MEASUREMENT TYPE: pIC50

Consider the worked cases shown below.
INSERT INTO results (compound, target, measured_result) VALUES
  ('N#Cc1nc(-c2ccnc(Nc3ccc(NC(=O)CN4CCOCC4)nc3)n2)ccc1N1CCC2(COC2)C1 [DMX-167]', 'TBK1 (Homo sapiens (Human), UniProt Q9UHD2)', '> 7.00'),
  ('N#Cc1nc(-c2ccnc(Nc3ccc(NC(=O)CN4CCOCC4)nc3)n2)ccc1N1CC[C@H](F)C1 [DMX-142]', 'TBK1 (Homo sapiens (Human), UniProt Q9UHD2)', '> 7.82'),
  ('N#Cc1cc(-c2ccnc(Nc3ccc(N4CCOCC4)cc3)n2)cnc1N1CC[C@H](O)C1 [DMX-49]', 'TBK1 (Homo sapiens (Human), UniProt Q9UHD2)', '> 7.82'),
  ('CN1CCC(Nc2ccc(Nc3nccc(-c4cnc(N[C@@H]5CCOC5)c(C#N)c4)n3)cn2)CC1 [DMX-114]', 'TBK1 (Homo sapiens (Human), UniProt Q9UHD2)', '> 7.00'),
  ('N#Cc1cc(-c2nc(Nc3ccc(NC(=O)CN4CCOCC4)nc3)ncc2F)cnc1N1CC[C@H](F)C1 [DMX-88]', 'TBK1 (Homo sapiens (Human), UniProt Q9UHD2)', '> 7.00');

Now look at this entry.
Problem: pIC50 lookup needed for N#Cc1cc(-c2ccnc(Nc3cnc4c(c3)CNC4)n2)cnc1N1CC[C@H](F)C1 [DMX-109] , thanks.
Solution: > 7.00

====

- TARGET: TBK1 (Homo sapiens (Human))
- ASSAY INFO: Lanthascreen TR-FRET kinase inhibition assay, TBK1
- Type: biochemical
- CONDITION INFO: 20 μM ATP (apparent Km), 8 nM kinase, 2.5 h
MEASUREMENT TYPE: IC50

Problem: Test system TBK1 (Homo sapiens (Human)); read-out IC50; what value for CN(c1ncc(-c2ccnc(Nc3ccc(CN4CCOCC4)nc3)n2)cc1C#N)C1CCOC1 (stereo not drawn) ?
Solution: < 100 nM

Problem: Test system TBK1 (Homo sapiens (Human)); read-out IC50; what value for CC(=O)NCC1CCCN1c1ncc(-c2ccnc(Nc3ccc(CN4CCOCC4)nc3)n2)cc1C#N (stereo not drawn) ?
Solution: < 1000 nM

Problem: Test system TBK1 (Homo sapiens (Human)); read-out IC50; what value for COCC1CCN(c2ncc(-c3ccnc(Nc4ccc(CN5CCOCC5)nc4)n3)cc2C#N)C1 (stereo not drawn) ?
Solution: < 1000 nM

Problem: Test system TBK1 (Homo sapiens (Human)); read-out IC50; what value for Cn1cc(Nc2nccc(-c3ccc(N4CC[C@H](O)C4)c(C#N)n3)n2)cn1 ?
Solution: < 100 nM

Problem: Test system TBK1 (Homo sapiens (Human)); read-out IC50; what value for N#Cc1cc(-c2ccnc(Nc3cnn(C[C@@H](O)CO)c3)n2)cnc1N1CCCC1 ?
Solution: < 15 nM

Problem: Test system TBK1 (Homo sapiens (Human)); read-out IC50; what value for N#Cc1cc(-c2ccnc(Nc3ccc(N4CCOCC4)cc3)n2)cnc1N1CCCC1 ?
Solution: < 15 nM

Problem: Test system TBK1 (Homo sapiens (Human)); read-out IC50; what value for CN1CCC(NC(=O)c2cccc(Nc3nccc(-c4cnc(N[C@@H]5CCOC5)c(C#N)c4)n3)c2)CC1 ?
Solution: < 1000 nM

Problem: Test system TBK1 (Homo sapiens (Human)); read-out IC50; what value for COCCN(C)CC(=O)Nc1ccc(Nc2nccc(-c3cnc(N4CC[C@H](F)C4)c(C#N)c3)n2)cn1 ?
Solution: < 30 nM

Problem: Test system TBK1 (Homo sapiens (Human)); read-out IC50; what value for N#Cc1cc(-c2ccnc(Nc3ccc(CN4CCOCC4)nc3)n2)cnc1NC1CCCC1 ?
Solution: < 100 nM

====

- TARGET: TBK1 (Homo sapiens (Human))
- ASSAY INFO: Lanthascreen TR-FRET kinase inhibition assay, TBK1
- Assay type: biochemical
- CONDITION INFO: 20 μM ATP (apparent Km), 8 nM kinase, 2.5 h
- Description: Compounds of the invention (synthesised as described below) were tested for activity against the IKKε and TBK-1 enzyme as follows: Inhibitions studies were performed using a time-resolved fluorescence-based Lanthascreen™ assay. Phosphorylation of a fluorescein-labelled substrate peptide is measured using terbium-labeled phosphospecific antibodies. Kinase inhibition assays (10 μL) were performed at 20° C. in 384-well plate format. […]
MEASUREMENT TYPE: IC50

INSERT INTO results (compound, target, measurement_type, measured_result) VALUES
  ('N#Cc1cc(-c2nc(Nc3ccc(NC(=O)CN4CCOCC4)nc3)ncc2F)cnc1N1CCCOCC1', 'TBK1 (Homo sapiens (Human))', 'IC50', '< 100 nM');

Problem: IC50 lookup needed for Cn1cc(Nc2nccc(-c3cnc(N4C5CCC4COC5)c(C#N)c3)n2)cn1 , thanks.
Solution: < 100 nM

Problem: IC50 lookup needed for N#Cc1nc(-c2ccnc(Nc3ccc(CN4CCOCC4)nc3)n2)ccc1N1CCCOCC1 , thanks.
Solution: < 100 nM

====

IC50 values for the compounds below.
- TARGET: IKKε (Homo sapiens (Human), UniProt Q14164)
- Sequence (Q14164 whole entry): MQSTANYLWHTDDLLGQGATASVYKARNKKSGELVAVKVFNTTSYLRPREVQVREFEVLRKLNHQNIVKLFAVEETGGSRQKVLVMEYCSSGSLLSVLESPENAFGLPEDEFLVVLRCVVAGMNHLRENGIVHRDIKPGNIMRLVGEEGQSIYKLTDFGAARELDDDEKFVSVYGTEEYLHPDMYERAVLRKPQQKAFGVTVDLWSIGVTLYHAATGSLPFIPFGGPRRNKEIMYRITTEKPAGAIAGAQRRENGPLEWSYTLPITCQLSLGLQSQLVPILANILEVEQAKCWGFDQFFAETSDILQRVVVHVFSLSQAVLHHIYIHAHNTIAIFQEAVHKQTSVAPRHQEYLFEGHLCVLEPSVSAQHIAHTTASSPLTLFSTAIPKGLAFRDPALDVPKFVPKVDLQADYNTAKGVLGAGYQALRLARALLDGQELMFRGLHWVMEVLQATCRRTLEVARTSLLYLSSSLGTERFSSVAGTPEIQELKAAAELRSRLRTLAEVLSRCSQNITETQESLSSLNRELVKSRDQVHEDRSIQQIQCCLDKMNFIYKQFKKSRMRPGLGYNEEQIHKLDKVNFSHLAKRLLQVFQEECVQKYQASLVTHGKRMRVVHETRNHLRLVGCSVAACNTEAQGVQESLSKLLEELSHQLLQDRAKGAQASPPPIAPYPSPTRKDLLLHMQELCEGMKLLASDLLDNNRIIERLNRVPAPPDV
- ASSAY INFO: Lanthascreen TR-FRET kinase inhibition assay, IKKε
- Format: biochemical
- CONDITION INFO: 20 μM ATP (apparent Km), 2 nM kinase, 1 h

INSERT INTO results (compound, measurement_type, measured_result) VALUES
  ('N#Cc1cc(-c2ccnc(Nc3ccc(C(N)=O)nc3)n2)cnc1N1CC[C@H](F)C1 [DMX-47]', 'IC50', '< 30 nM'),
  ('C[C@@H]1CN(c2ccc(Nc3nccc(-c4cnc(N5CC[C@H](O)C5)c(C#N)c4)n3)cn2)CCN1 [DMX-26]', 'IC50', '< 100 nM');

Problem: IC50 lookup needed for Cn1cc(Nc2nccc(-c3cnc(N4CC[C@H](F)C4)c(C#N)c3)n2)cn1 [DMX-7] , thanks.
Solution: < 30 nM

====

- TARGET: TBK1 (Homo sapiens (Human), UniProt Q9UHD2)
- ASSAY INFO: Lanthascreen TR-FRET kinase inhibition assay, TBK1
- Assay type: biochemical
- CONDITION INFO: 20 μM ATP (apparent Km), 8 nM kinase, 2.5 h
pIC50: −log10 of the molar value.
MEASUREMENT TYPE: pIC50

Problem: pIC50 lookup needed for Cn1cc(Nc2nccc(-c3ccc(N4CCC(C(N)=O)CC4)c(C#N)n3)n2)cn1 , thanks.
Solution: > 7.00

====

- TARGET: TBK1 (Homo sapiens (Human))
- ASSAY INFO: Lanthascreen TR-FRET kinase inhibition assay, TBK1
- Type: biochemical
- CONDITION INFO: 20 μM ATP (apparent Km), 8 nM kinase, 2.5 h
- Protocol: Compounds of the invention (synthesised as described below) were tested for activity against the IKKε and TBK-1 enzyme as follows: Inhibitions studies were performed using a time-resolved fluorescence-based Lanthascreen™ assay. Phosphorylation of a fluorescein-labelled substrate peptide is measured using terbium-labeled phosphospecific antibodies. Kinase inhibition assays (10 μL) were performed at 20° C. in 384-well plate format. […]
MEASUREMENT TYPE: IC50

INSERT INTO assay_data (compound, measured_result) VALUES
  ('N#Cc1cc(-c2ccnc(Nc3ccc(CN4CCOCC4)nc3)n2)cnc1NCC1CCOC1 (centres unmarked)', '< 0.1 µM'),
  ('CN(CCO)c1cc(Nc2nccc(-c3cnc(N4CC[C@H](F)C4)c(C#N)c3)n2)ccn1', '< 0.03 µM'),
  ('N#Cc1nc(-c2ccnc(Nc3ccc(CN4CCOCC4)nc3)n2)ccc1N1CCC2(COC2)C1', '< 0.03 µM'),
  ('N#Cc1cc(-c2ccnc(Nc3ccnc(CN4CCOCC4)c3)n2)cnc1N1CC[C@H](F)C1', '< 0.015 µM');

Problem: IC50 lookup needed for N#Cc1cc(-c2nc(Nc3ccc(CN4CCOCC4)nc3)ncc2F)cnc1N1CC[C@H](F)C1 , thanks.
Solution: < 0.015 µM

====

- TARGET: IKKε (Homo sapiens (Human), UniProt Q14164)
- ASSAY INFO: Lanthascreen TR-FRET kinase inhibition assay, IKKε
- Assay type: biochemical
- CONDITION INFO: 20 μM ATP (apparent Km), 2 nM kinase, 1 h
IC50 values for the compounds below.

INSERT INTO assay_data (entry_smiles, measured_result) VALUES
  ('N#Cc1cc(-c2ccnc(Nc3ccnc(NC(=O)CN4CCOCC4)c3)n2)cnc1N1CC[C@H](F)C1', '< 30 nM'),
  ('CN1CCN(c2ccc(Nc3nccc(-c4cnc(N5CC[C@H](F)C5)c(C#N)c4)n3)cn2)CC1', '< 15 nM'),
  ('CC(=O)Nc1ccc(Nc2nccc(-c3cnc(N[C@@H]4CCOC4)c(C#N)c3)n2)cn1', '< 1000 nM'),
  ('COCCN(C)c1ncc(-c2ccnc(Nc3ccc(CN4CCOCC4)nc3)n2)cc1C#N', '< 1000 nM'),
  ('N#Cc1nc(-c2ccnc(Nc3ccc(CN4CC[C@H](F)C4)nc3)n2)ccc1N1CC[C@H](F)C1', '< 15 nM');

Problem: IC50 lookup needed for N#Cc1cc(-c2nc(Nc3ccc(CN4CCOCC4)nc3)ncc2F)cnc1N1CCCOCC1 , thanks.
Solution: < 100 nM

Problem: IC50 lookup needed for N#Cc1cc(-c2ccnc(Nc3ccc(N4CCOCC4)cc3)n2)cnc1N1CCCC1 , thanks.
Solution: < 30 nM
